Target: Human TRPC6 (Homo sapiens, UniProt Q9Y210)
Construct: expressed in transfected cells
Sequence (Q9Y210 whole entry): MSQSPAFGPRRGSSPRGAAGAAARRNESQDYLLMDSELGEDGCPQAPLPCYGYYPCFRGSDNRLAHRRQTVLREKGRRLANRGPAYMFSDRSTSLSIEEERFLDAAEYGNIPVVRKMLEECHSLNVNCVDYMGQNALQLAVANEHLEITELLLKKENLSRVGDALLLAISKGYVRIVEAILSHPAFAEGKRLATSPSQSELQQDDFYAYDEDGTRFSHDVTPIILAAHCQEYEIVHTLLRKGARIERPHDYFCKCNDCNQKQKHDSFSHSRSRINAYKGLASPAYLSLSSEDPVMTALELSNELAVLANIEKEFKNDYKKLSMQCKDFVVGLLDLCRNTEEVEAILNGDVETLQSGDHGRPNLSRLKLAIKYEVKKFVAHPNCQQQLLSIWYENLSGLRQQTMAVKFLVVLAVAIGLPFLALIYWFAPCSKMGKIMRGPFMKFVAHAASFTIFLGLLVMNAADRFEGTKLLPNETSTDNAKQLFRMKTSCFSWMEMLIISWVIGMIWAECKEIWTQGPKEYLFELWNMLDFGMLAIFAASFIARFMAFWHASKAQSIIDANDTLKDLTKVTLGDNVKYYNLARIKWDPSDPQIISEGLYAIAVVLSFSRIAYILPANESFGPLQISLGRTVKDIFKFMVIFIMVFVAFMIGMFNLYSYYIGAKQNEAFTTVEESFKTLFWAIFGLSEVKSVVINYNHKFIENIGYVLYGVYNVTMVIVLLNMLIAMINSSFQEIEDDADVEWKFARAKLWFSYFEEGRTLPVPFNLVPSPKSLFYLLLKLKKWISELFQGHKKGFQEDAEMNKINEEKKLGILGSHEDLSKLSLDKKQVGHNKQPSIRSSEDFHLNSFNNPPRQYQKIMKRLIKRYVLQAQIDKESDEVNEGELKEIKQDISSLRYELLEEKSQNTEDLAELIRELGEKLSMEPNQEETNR
Test: Evaluation of TRPC6 channel inhibitory activity (1), FLIPR Calcium 5 Assay Kit, OAG stimulation (Compound Nos. 1-1293)
Format: cell-based
Settings: Human TRPC6 stably-expressing cells, OAG 30 μM, FLIPR Calcium 5 Assay Kit; read-out: Inhibitory activity (pIC50 class) (converted)
Protocol: Evaluation of TRPC6 Channel Inhibitory Activity (1) (Compound Nos. 1-1293) In order to investigate TRPC6 channel inhibitory activity of the compounds, evaluation was conducted using FLIPR® Calcium 5 Assay Kit (Molecular Devices) in accordance with the following procedure. […] A volume of 12.5 μL of a compound solution was added into each well while the fluorescence was measured with FLIPR tetra. […]
Readout Name: IC50

Answered cases to consult:
In [3]: df
Out[3]:
                                   compound                              assay_target  readout_name  readout_value
0  Cn1nc(-c2cncc(F)c2)cc1Oc1cc(C#N)ccc1-c1ncc(CN)cn1  Human TRPC6 (Homo sapiens, UniProt Q9Y210)          IC50  10 to 1000 nM
1  Cc1c(Oc2cc(C#N)ccc2-c2ncc(CCN)cn2)cnn1CC(F)F  Human TRPC6 (Homo sapiens, UniProt Q9Y210)          IC50      > 1000 nM
2  Cn1nc(N2CCCC2)cc1Cc1cc(C#N)ccc1-c1ncc(CN)cn1  Human TRPC6 (Homo sapiens, UniProt Q9Y210)          IC50        < 10 nM
3  CCOc1cc(Oc2cc(C#N)ccc2-c2ccc([C@H](O)CN)cn2)n(C)n1  Human TRPC6 (Homo sapiens, UniProt Q9Y210)          IC50        < 10 nM
4  CC(C)c1cc(Oc2cc(F)ccc2-c2ccc(CN)cn2)n(C)n1  Human TRPC6 (Homo sapiens, UniProt Q9Y210)          IC50        < 10 nM

Asked: Requested field: IC50. Item: `Cc1ccc(-c2cn(Cc3cc(C#N)ccc3-c3ccc(CCN)cn3)c(C)n2)cc1`
Given back: < 10 nM

Asked: Requested field: IC50. Item: `Cc1nc(Oc2cc(C#N)ccc2-n2cc(C(=O)CN)cn2)cc(-c2ccccc2)n1`
Given back: > 1000 nM

Asked: Requested field: IC50. Item: `Cn1nc(-c2cnccn2)cc1Oc1cc(C#N)ccc1-c1ncc(CCN)cn1`
Given back: < 10 nM

Asked: Requested field: IC50. Item: Cc1nc(Oc2cc(C#N)ccc2-c2ccc(C(CN)C(F)(F)F)cc2)cc(N2CCOCC2)n1 (stereo not drawn)
Given back: < 10 nM
